test system: CCRIS mutagenicity, Ames/micronucleus/aberration tests; assay: CCRIS mutagenicity studies; conditions: Test System: AMES SALMONELLA TYPHIMURIUM; Strain/Indicator: TA1538; Metabolic Activation: RAT, LIVER, S-9, AROCLOR 1254; Method: PREINCUBATION
Active and inactive are the calls of the source. How the calls were made is not given here.
Your response should consist of one outcome taken from 1.0 (active), 0.0 (inactive)

{"SMILES NOTATION": "COc1cc2c(cc1OC)CN(N=O)CC2", "LABEL": 1.0}
{"SMILES NOTATION": "C1O[C@@H]1[C@@H]1CO1", "LABEL": 0.0}
{"SMILES NOTATION": "C=CC=O", "LABEL": 0.0}
{"SMILES NOTATION": "C#C[C@]1(O)CC[C@H]2[C@@H]3CCC4=CC(=O)CC[C@@H]4[C@H]3CC[C@@]21C", "LABEL": 0.0}
{"SMILES NOTATION": "O=NN1CCCCC1", "LABEL": 0.0}

Asked: Test call for this compound, please: CCCC(=O)O[C@H]1[C@H](C)O[C@@H](O[C@H]2[C@H](N(C)C)[C@@H](O)[C@H](O[C@H]3[C@@H](CC=O)C[C@@H](C)[C@@H](O)/C=C/C=C/C[C@@H](C)OC(=O)C[C@@H](O)[C@@H]3OC)O[C@@H]2C)C[C@@]1(C)OC(=O)CC
Given back: 0.0

Asked: What call does the record list for Fc1c(F)c(Cl)c(F)c(Cl)c1F ?
Given back: 0.0

Asked: Hi team, can someone confirm the assay call for C[Si](Cl)Cl ?
Given back: 0.0

Asked: Please let me know the test result on file for O=C/C(Br)=C/c1ccccc1 .
Given back: 1.0

Asked: Hello, I am checking results. What call was entered for O=C1c2ccccc2C(=O)c2c1cc(O)c(CO)c2O ?
Given back: 1.0

* * *

test system: CCRIS mutagenicity, Ames/micronucleus/aberration tests; experiment: CCRIS mutagenicity studies; details: Test System: AMES SALMONELLA TYPHIMURIUM; Strain/Indicator: TA102; Metabolic Activation: RAT, LIVER, S-9, AROCLOR 1254; Method: PREINCUBATION
Active and inactive are the calls of the source. No rule for the calls is given here.
Pick from T = active, F = inactive when you respond.

For orientation, consider the following solved cases.
{"SMILES NOTATION": "CC(=O)c1c(=O)cc(C)oc1=O", "LABEL": "F"}
{"SMILES NOTATION": "O=C(O)O", "LABEL": "F"}
{"SMILES NOTATION": "CC(C)CC=O", "LABEL": "F"}
{"SMILES NOTATION": "CCOc1cc(C=O)ccc1O", "LABEL": "F"}
{"SMILES NOTATION": "OC[C@@H](O)[C@@H](O)[C@H](O)[C@@H](O)CO", "LABEL": "F"}

Asked: Call for entry CC(C)(CO)[C@@H](O)C(=O)NCCC(=O)O :
Given back: F

Asked: What call does the record list for CC(=O)c1ccccc1 ?
Given back: F

Asked: Field: outcome | Entry: CCNC(=O)CC[C@H](N)C(=O)O
Given back: F

Asked: Outcome logged for C=CCOC(=O)CCCCC in this assay:
Given back: F

Asked: // outcome(item) with item = NC(=O)c1cccnc1
Given back: F

Asked: Could you please tell me the result logged for CCCCCC(=O)O in this assay?
Given back: F

Asked: For CCCCCC[C@H](C/C=C\CCCCCCCC(=O)OC)OC(C)=O , which call appears in the assay record?
Given back: F

Asked: Write down the call the test reported for this compound. Item: O=S(O)S(=O)O
Given back: F

Asked: Please let me know the test result on file for O=C1c2ccccc2C(=O)c2c1cc(O)c(CO)c2O .
Given back: T

Asked: Dear colleague, could you share the recorded outcome for O=NO when you have a moment?
Given back: F

Asked: # outcome recorded in this test, key = CC(C)=O
Given back: F

Asked: Entry COc1ccc(C=O)cc1 : call = ?
Given back: F

Asked: Hello, I am checking results. What call was entered for CC(C)COC(=O)Cc1ccccc1 ?
Given back: F

Asked: Outcome? O=S(O)S(=O)(=O)O
Given back: F

Asked: Please let me know the test result on file for CC(=O)OC(C)(C)C .
Given back: F

Asked: Entry OCc1ccco1 : call = ?
Given back: F

Asked: Per the records of this test, what outcome belongs to C/C(=C(\CCOC(=O)c1ccccc1)SC(=O)c1ccccc1)N(C=O)Cc1cnc(C)nc1N ?
Given back: F

Asked: Name the outcome recorded for Cc1ccc(C=O)cc1 in the assay.
Given back: F

Asked: State the result this test recorded for Cc1ccco1 .
Given back: F

Asked: Query: recorded result category for c1ccncc1 in this test
Given back: F

* * *

Tested on: CCRIS mutagenicity, Ames/micronucleus/aberration tests
Assay: CCRIS mutagenicity studies
Settings: Test System: AMES SALMONELLA TYPHIMURIUM; Strain/Indicator: TA100; Metabolic Activation: RAT, LIVER, S-9, SODIUM PHENOBARBITAL; Method: STANDARD PLATE
From the text: The CCRIS database contains chemical records with carcinogenicity, mutagenicity, tumor promotion, and tumor inhibition test results. It was developed by the National Cancer Institute (NCI). Data are derived from studies cited in primary journals, current awareness tools, NCI reports, and other sources. Test results have been reviewed by experts in carcinogenesis and mutagenesis. CCRIS provides historical information from the years 1985 - 2011. It is no longer updated. […]
Activity calls are given as the source filed them. The rule behind the calls is not given here.
ATTRIBUTE MEASURED: mutagenic call

Worked examples, 5 compounds total:
{"SMILES NOTATION": "C=C(C)C(=O)OCC", "VALUE REPORTED": "inactive; negative"}
{"SMILES NOTATION": "C=CC(=O)OCCCC", "VALUE REPORTED": "inactive; negative"}
{"SMILES NOTATION": "C=C(C)C(=O)OCC(C)(C)C", "VALUE REPORTED": "inactive; negative"}
{"SMILES NOTATION": "C=CC(=O)OCCCCCOC(=O)C=C", "VALUE REPORTED": "inactive; negative"}
{"SMILES NOTATION": "C=C(C)C(=O)OCCOCCOC(=O)C(=C)C", "VALUE REPORTED": "inactive; negative"}

Asked: Recall and state the measured mutagenic call for CC(C)COP(=S)(OCC(C)C)SCCl .
Given back: inactive; negative

* * *

system: CCRIS mutagenicity, Ames/micronucleus/aberration tests; assay: CCRIS mutagenicity studies; conditions: Test System: AMES SALMONELLA TYPHIMURIUM; Strain/Indicator: TA100; Metabolic Activation: MOUSE, LIVER, S-9, AROCLOR 1254; Method: STANDARD PLATE
Active and inactive are the calls of the source. The rule behind the calls is not given here.
Pick one: active, inactive

Some entries whose results are on file:
{"MOLECULE": "CC(C)(C)C(Br)C(=O)Nc1ccccc1 (configuration not stated)", "STUDY SYSTEM": "CCRIS mutagenicity, Ames/micronucleus/aberration tests", "LABEL": "inactive"}
{"MOLECULE": "CC[C@H]1OC(=O)[C@H](C)[C@@H](O[C@H]2C[C@@](C)(OC)[C@@H](O)[C@H](C)O2)[C@H](C)[C@@H](O[C@@H]2O[C@H](C)C[C@H](N(C)C)[C@H]2O)[C@](C)(O)C[C@@H](C)CN(C)[C@H](C)[C@@H](O)[C@]1(C)O", "STUDY SYSTEM": "CCRIS mutagenicity, Ames/micronucleus/aberration tests", "LABEL": "inactive"}
{"MOLECULE": "O=C(NCc1ccccc1)C1CO1 (configuration not stated)", "STUDY SYSTEM": "CCRIS mutagenicity, Ames/micronucleus/aberration tests", "LABEL": "active"}
{"MOLECULE": "CC(Cl)C(=O)NCc1ccccc1 (configuration not stated)", "STUDY SYSTEM": "CCRIS mutagenicity, Ames/micronucleus/aberration tests", "LABEL": "inactive"}
{"MOLECULE": "CC1(C(=O)Nc2ccccc2)CO1 (configuration not stated)", "STUDY SYSTEM": "CCRIS mutagenicity, Ames/micronucleus/aberration tests", "LABEL": "active"}
{"MOLECULE": "[O-]/[N+](=N\\O)c1ccccc1", "STUDY SYSTEM": "CCRIS mutagenicity, Ames/micronucleus/aberration tests", "LABEL": "inactive"}

Asked: Called result for C1O[C@@H]1[C@@H]1CO1
Given back: active

* * *

tested on: CCRIS mutagenicity, Ames/micronucleus/aberration tests; assay: CCRIS mutagenicity studies; details: Test System: AMES SALMONELLA TYPHIMURIUM; Strain/Indicator: TA1538; Metabolic Activation: NONE
The source made the active and inactive calls. How the calls were made is not given here.
Select the correct class. Options are yes for active, no for inactive and nothing else.

Asked: Could you check what this test reported for O=C1c2ccccc2-c2ccc([N+](=O)[O-])cc21 ?
Given back: yes

Asked: Which outcome was assigned to CC(=O)OCC(=O)NCCCOc1cccc(CN2CCCCC2)c1 in this test?
Given back: no

Asked: Check the results log: what was the call for CCCN(CCC)c1c([N+](=O)[O-])cc(C(F)(F)F)cc1[N+](=O)[O-] ?
Given back: no

Asked: Please indicate how the test categorized C=C(C)C .
Given back: no

All figures here come from PubChem BioAssay AID1259407.
